# STUDY_SYSTEM: T1, monovalent hVISTA-ECD (human VISTA extracellular domain with His tail) (human, UniProt Q9H7M9 33-193)
# T1 construct: analyte flowed over captured antibody; also called huVISTA-His
# T1 sequence (Q9H7M9 other isoform, or with tags, fused parts or gaps limits assumed): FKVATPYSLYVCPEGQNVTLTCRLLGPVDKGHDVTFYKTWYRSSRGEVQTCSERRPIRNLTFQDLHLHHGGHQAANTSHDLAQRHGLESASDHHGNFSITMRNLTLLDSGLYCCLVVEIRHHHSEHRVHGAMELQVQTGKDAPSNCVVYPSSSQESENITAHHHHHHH
# ASSAY_OVERVIEW: SPR, pH 6.0
METRIC: Kd (nM)
Answer with a number only, understood to be in nM.

Some solved entries appear below for comparison.
Inquiry: Requested field: Kd. Item: P1-063001 (41F11_LC_Mutant: V29D/A64G/R91T) (antibody, V domains shown, also called P1-063001-5; P1-063001-6) VH: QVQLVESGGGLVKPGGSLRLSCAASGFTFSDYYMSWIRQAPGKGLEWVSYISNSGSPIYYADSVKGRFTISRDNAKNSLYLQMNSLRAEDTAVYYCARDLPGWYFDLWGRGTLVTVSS VL: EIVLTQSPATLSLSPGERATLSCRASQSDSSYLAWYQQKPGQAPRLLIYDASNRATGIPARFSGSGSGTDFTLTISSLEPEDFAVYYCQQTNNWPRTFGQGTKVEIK
Reply text: 1

Inquiry: Now the same for P1-063125 (41F11_HC_Mutant: T28P/Y50W/S55E/Y100E) (antibody, V domains shown, Kabat positions; also called P1-063125-5) VH: QVQLVESGGGLVKPGGSLRLSCAASGFPFSDYYMSWIRQAPGKGLEWVSWISNSGEPIYYADSVKGRFTISRDNAKNSLYLQMNSLRAEDTAVYYCARDLPGWEFDLWGRGTLVTVSS VL: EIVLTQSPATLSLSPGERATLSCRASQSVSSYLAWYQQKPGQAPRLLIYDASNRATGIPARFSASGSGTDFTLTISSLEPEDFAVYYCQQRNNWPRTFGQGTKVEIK
Reply text: 0.25

Inquiry: Now the same for P1-065333 (41F11_VH_T28P/Y50W/S55E/L96E/Y100E VK_A64G) (antibody, human IgG1, kappa, V domains shown, IgG1.3; also called P1-065333-1; VISTA.4 pH-independent progeny) VH: QVQLVESGGGLVKPGGSLRLSCAASGFPFSDYYMSWIRQAPGKGLEWVSWISNSGEPIYYADSVKGRFTISRDNAKNSLYLQMNSLRAEDTAVYYCARDEPGWEFDLWGRGTLVTVSS VL: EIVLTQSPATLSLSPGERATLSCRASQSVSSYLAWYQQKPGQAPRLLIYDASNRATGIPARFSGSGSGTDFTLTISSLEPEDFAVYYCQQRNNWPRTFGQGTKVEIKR
Reply text: 0.38

Inquiry: Now the same for P1-064391 (41F11_HC_Mutant: D31E/Y50W/S55E/Y100E 41F11_LC_Mutant: V29D/A64G/R91T) (antibody, V domains shown, Kabat positions; also called P1-064391-1) VH: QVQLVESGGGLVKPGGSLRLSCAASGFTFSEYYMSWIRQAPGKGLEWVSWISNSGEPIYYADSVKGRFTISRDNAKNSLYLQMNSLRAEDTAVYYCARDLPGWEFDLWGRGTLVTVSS VL: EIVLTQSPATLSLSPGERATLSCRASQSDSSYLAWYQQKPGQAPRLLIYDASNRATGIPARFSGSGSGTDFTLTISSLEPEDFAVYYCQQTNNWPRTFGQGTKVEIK
Reply text: 6.4

Inquiry: Now the same for P1-065326 (41F11_VH_D31E/Y50W/S55E/L96E/Y100E VK_A64G) (antibody, V domains shown, Kabat positions; also called P1-065326-1) VH: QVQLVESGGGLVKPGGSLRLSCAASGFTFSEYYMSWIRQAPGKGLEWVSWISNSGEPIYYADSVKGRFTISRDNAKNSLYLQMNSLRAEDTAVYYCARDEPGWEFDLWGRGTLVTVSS VL: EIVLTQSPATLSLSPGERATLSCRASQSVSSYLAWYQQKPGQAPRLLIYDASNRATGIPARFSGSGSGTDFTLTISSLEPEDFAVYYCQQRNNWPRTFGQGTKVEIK
Reply text: 0.12

---
Inquiry: Requested field: Kd. Item: P1-063153 (41F11_HC_mutant: D31E/Y50W/S55E/Y100E) (antibody, V domains shown, Kabat positions; also called P1-063153-5) VH: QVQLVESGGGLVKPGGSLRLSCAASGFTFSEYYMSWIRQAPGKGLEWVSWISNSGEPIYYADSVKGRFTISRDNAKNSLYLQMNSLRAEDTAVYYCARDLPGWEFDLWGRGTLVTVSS VL: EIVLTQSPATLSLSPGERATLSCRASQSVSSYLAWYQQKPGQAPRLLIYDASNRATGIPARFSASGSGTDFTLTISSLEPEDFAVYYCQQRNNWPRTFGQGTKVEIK
Reply text: 0.13

Inquiry: Now the same for P1-064490 (41F11_VH_F27EY50EL96E) (antibody, V domains shown, Kabat positions; also called P1-064490-1; P1-064490-2) VH: QVQLVESGGGLVKPGGSLRLSCAASGETFSDYYMSWIRQAPGKGLEWVSEISNSGSPIYYADSVKGRFTISRDNAKNSLYLQMNSLRAEDTAVYYCARDEPGWYFDLWGRGTLVTVSS VL: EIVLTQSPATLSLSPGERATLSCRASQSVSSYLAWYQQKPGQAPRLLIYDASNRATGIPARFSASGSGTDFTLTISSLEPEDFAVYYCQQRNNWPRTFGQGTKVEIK
Reply text: 22

Inquiry: Now the same for P1-065064 (41F11_LC_Mutant: V29D/A64G/R91T) (antibody, V domains shown, Same printed description as P1-063001 under another ID; also called P1-065064-1) VH: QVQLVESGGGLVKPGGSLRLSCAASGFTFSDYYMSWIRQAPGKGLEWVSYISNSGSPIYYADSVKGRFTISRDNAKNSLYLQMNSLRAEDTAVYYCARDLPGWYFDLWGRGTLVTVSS VL: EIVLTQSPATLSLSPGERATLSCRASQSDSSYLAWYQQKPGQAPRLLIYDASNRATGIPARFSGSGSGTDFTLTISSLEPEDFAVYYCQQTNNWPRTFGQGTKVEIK
Reply text: 1.1

Inquiry: Now the same for P1-064510 (41F11_Vk_A25E/V29D/A64G/R91T) (antibody, V domains shown, also called P1-064510-1) VH: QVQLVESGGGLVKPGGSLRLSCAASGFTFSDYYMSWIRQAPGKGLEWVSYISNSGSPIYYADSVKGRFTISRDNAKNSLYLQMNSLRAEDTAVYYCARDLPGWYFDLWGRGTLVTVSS VL: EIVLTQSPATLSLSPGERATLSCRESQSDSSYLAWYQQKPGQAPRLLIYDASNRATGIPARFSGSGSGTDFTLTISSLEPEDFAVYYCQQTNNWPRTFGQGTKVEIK
Reply text: 2.6
